# TEST_DESCRIPTION: A375 melanoma cell viability reduction, dose response, counter-screen for MITF modulator project, cherry-pick samples, set 2 (AID 540335);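 also: A375 human melanoma cells which do not depend on MITF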
# CONDITION_CONTEXT: CellTiter-Glo ATP luminescence, 24 h; series mostly up to 35 µM
Out of some 1,300 compounds screened, about 270 (21%) were called active. The list is a sample of the results. Potency and affinity values are given separately.
RESULT_TYPE: outcome

Use these answered entries as a reference point.
MOLECULE: Cc1ccc2oc(C(Cl)(Cl)Cl)cc(=O)c2c1
outcome: inactive
--
MOLECULE: Cc1cc(C)c[n+](C2=C([O-])c3ccccc3C(=O)/C2=N\S(=O)(=O)c2cccs2)c1
outcome: inactive
--
MOLECULE: O=C(C#Cc1ccccc1)c1cccc([N+](=O)[O-])c1
outcome: inactive
--
MOLECULE: COCCN(CC(=O)NC1CCCCC1)C(=O)/C=C/C(=O)c1ccc(OC)cc1O
outcome: inactive
--
MOLECULE: COc1cccc(/C=C2/Sc3ccc(C(=O)NCCN4CCCC4)cc3NC2=O)c1
outcome: inactive
--
MOLECULE: Cc1c(C(=O)Nc2ccc(S(=O)(=O)N(C)C3CCN(C)CC3)cc2)oc2c(Cl)cccc12
outcome: inactive

Look up and report measured outcome for this entry: CCCCNC(=O)Nc1ccc(C2SCCS2)cc1
inactive

Give the reported outcome for this molecule. CCN(CC)CCNC(=O)c1c(C)n(-c2ccccc2)c2cc(Br)c(OC)cc12
inactive

Identify outcome associated with the molecule COc1ccc(C(NC(C)=O)c2ccc3cccnc3c2O)c(OC)c1 (centres undefined)
inactive

----------
# TEST_DESCRIPTION: A375 melanoma cell viability reduction, dose response, counter-screen for MITF modulator project, cherry-pick samples, set 2 (AID 540335);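 also: A375 human melanoma cells which do not depend on MITF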
# CONDITION_CONTEXT: CellTiter-Glo ATP luminescence, 24 h; series mostly up to 35 µM
Among all 1,300 compounds or so, about 270 (21%) were called active. Only a sample is shown. Potency and affinity values are given separately.
RESULT_TYPE: outcome

Worked examples follow.
COMPOUND: CCCC(=O)N1CCN(c2ccc(NC(=O)c3ccc([N+](=O)[O-])o3)cc2Cl)CC1
outcome: inactive

COMPOUND: Cc1cc(/C(N)=N/OC(=O)c2ccc(Cl)cc2)no1
outcome: inactive

COMPOUND: O=C(c1nnsc1S(=O)(=O)c1ccc(Cl)cc1)N1CCOCC1
outcome: inactive

COMPOUND: O=C1Nc2cc(C(=O)NCCN3CCCCCC3)ccc2S/C1=C\c1ccccc1
outcome: inactive

COMPOUND: O=C(c1ccc(S(=O)(=O)Cc2ccccc2Cl)c([N+](=O)[O-])c1)N1CCN(c2ccccn2)CC1
outcome: inactive

Supply measured outcome of O=C(CCl)Nc1cccc(-c2cnc3ccccc3n2)c1 in your reply.
inactive

Complete the entry with outcome for O=C(NC1=C(Nc2ccc(Cl)cc2)C(=O)c2ccccc2C1=O)c1ccccc1
inactive

Supply outcome value. Item: CCOC(=O)CSC1=NC(=O)/C(=C\c2ccc(Cl)cc2)S1
inactive

Fill in reported outcome for this entry: CCN(CC)CCNC(=O)c1ccc(NC(=O)c2cn(-c3ccccc3)nc2-c2cccs2)cc1
inactive

Name the recorded outcome of the compound listed here: Cc1ccc(/C=N/Nc2ccc(C(=O)O)cc2)s1
inactive

Supply reported outcome belonging to this compound: O=C(O)c1ccc(C(=O)Nc2ccc(F)cc2)cc1
inactive

Give recorded outcome. CC1=C/C(=N\NC(=S)Nc2cccnc2)CC(C)(C)C1
inactive

// fetch outcome given entry COc1ccc(/C=C2\SC(=O)N(CCCC(=O)Nc3cc(Cl)ccc3C(=O)O)C2=O)cc1
inactive

Please indicate outcome recorded for COc1ccc(NC(=O)NC(=O)c2ccccc2)cc1
inactive

Tell me measured outcome for O=C(N/N=C/c1ccc([N+](=O)[O-])o1)c1cc2ccccc2o1 please.
inactive

Specify reported outcome for the compound shown: O=C(N/N=C/c1ccc(F)cc1)c1c(O)c2ccccc2[nH]c1=O
inactive

Give outcome for the following compound: COC1=C(Nc2ccccc2)C(=O)c2ccccc2C1=O
inactive

Give the reported outcome for this compound. O=C(Nc1ccccc1N1CCOCC1)c1ccc([N+](=O)[O-])s1
inactive
